pIC50: −log10 of the molar value.
For reference, pIC50 measured on p110α (Homo sapiens):
experimental.endpoint: pIC50

structure=CCN(/N=C/c1cnc2ccc(Br)cn12)S(=O)(=O)c1cc([N+](=O)[O-])c(F)cc1C system_under_test="p110α (Homo sapiens)" experimental_endpoint=pIC50 result_value=7.62

I: CCN(/N=C/c1cnc2ccc(Br)cn12)S(=O)(=O)c1cc([N+](=O)[O-])c(N)cc1Cl
II: CCN(/N=C/c1cnc2ccc(Br)cn12)S(=O)(=O)c1cc([N+](=O)[O-])c(NCCOCCO)cc1C
Smaller pIC50 value, I vs II ? Please respond with the label that marks your chosen entry.
II

###

Target: p110α (Homo sapiens, UniProt P42336)
Construct: His-tag; made in house; host or cells: Sf9 insect cells (baculovirus)
Sequence (P42336 whole entry): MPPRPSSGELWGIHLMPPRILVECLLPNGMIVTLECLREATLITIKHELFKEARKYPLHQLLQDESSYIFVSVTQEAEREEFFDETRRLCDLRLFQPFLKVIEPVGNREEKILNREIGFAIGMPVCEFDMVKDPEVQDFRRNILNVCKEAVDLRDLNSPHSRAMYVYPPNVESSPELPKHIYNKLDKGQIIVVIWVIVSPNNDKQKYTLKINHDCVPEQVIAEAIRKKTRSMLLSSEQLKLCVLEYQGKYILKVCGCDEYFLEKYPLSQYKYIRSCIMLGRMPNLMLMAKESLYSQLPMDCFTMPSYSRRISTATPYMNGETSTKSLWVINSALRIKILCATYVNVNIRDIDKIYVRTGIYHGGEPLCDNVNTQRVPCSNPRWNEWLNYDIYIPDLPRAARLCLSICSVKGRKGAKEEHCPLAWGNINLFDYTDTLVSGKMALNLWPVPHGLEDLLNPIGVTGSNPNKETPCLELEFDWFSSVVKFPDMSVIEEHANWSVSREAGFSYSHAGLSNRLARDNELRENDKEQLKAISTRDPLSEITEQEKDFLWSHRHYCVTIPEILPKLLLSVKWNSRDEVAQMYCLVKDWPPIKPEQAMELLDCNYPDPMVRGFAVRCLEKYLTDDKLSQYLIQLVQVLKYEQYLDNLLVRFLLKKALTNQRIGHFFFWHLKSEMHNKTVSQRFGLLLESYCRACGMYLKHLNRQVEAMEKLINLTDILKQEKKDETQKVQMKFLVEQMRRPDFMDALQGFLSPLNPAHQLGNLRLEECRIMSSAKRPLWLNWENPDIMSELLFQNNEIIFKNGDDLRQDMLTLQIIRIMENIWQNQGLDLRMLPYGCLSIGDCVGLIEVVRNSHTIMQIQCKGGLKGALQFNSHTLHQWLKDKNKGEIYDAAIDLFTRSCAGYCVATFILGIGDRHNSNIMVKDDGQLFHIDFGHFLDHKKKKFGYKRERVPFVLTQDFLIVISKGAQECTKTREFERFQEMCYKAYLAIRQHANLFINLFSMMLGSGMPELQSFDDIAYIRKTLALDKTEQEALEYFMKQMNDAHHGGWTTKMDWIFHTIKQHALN
Sequence (P27986 322-600 partner limits assumed): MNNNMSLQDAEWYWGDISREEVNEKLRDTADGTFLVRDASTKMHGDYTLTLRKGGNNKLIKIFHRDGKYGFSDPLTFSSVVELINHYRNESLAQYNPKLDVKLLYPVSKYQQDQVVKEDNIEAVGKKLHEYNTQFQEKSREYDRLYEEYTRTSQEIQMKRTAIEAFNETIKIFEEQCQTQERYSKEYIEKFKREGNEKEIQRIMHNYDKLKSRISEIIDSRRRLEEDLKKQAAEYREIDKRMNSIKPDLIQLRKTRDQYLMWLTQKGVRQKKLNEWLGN
Test: Biochemical PI3K inhibition assay, p110α
Settings: SAR discussion
Protocol: PIK3CD was generously provided by Novartis Pharmaceuticals. […] J-series inhibitors were dissolved, serial diluted in DMSO and deposited into 96 well plates at a final DMSO concentration of 1%. […] Radio-labeled phosphatidyl-inositol-3-phosphate in the extracted organic fraction was quantified after the addition of Microscint O (PerkinElmer) using a TopCount 96 well plate scintillation counter (PerkinElmer). […]
experimental.endpoint: effect of substitution on PI3Kα potency/selectivity (in words)

structure=CCOC(=O)CN(/N=C/c1cnc2ccc(Br)cn12)S(=O)(=O)c1cc([N+](=O)[O-])ccc1C result_value="did not increase potency"
structure=CCN(/N=C/c1cnc2ccc(Br)cn12)S(=O)(=O)c1cc(C(=O)O)ccc1C result_value="impaired potency"
structure=Cc1ccc([N+](=O)[O-])cc1S(=O)(=O)N(CCC#N)/N=C/c1cnc2ccc(Br)cn12 result_value="did not increase potency"
structure=CCN(/N=C/c1cnc2ccc(Br)cn12)S(=O)(=O)c1cc(S(C)(=O)=O)ccc1C result_value="impaired potency"

###

Target: p110α (Homo sapiens, UniProt P42336)
Construct: His-tag; made in house; host or cells: Sf9 insect cells (baculovirus)
Test: Biochemical PI3K inhibition assay, p110α
Conditions: SAR discussion
Experimental: PIK3CD was generously provided by Novartis Pharmaceuticals. […] J-series inhibitors were dissolved, serial diluted in DMSO and deposited into 96 well plates at a final DMSO concentration of 1%. […] Radio-labeled phosphatidyl-inositol-3-phosphate in the extracted organic fraction was quantified after the addition of Microscint O (PerkinElmer) using a TopCount 96 well plate scintillation counter (PerkinElmer). […]
experimental.endpoint: effect of substitution on PI3Kα potency/selectivity (in words)

compound="CCN(/N=C/c1cnc2ccc(Br)cn12)S(=O)(=O)c1cc(C(N)=O)ccc1Cl [J125]" result_value="impaired potency"
compound="CCN(/N=C/c1cnc2ccc(Br)cn12)S(=O)(=O)c1cc(N)ccc1C [J44]" result_value="impaired potency"

###

Each entry below carries its recorded drop/decrease in inhibitory activity for PI3Kα.
Molecular target: p110α (Homo sapiens)
Construct: His-tag; made in house; host or cells: Sf9 insect cells (baculovirus)
Assay: Biochemical PI3K inhibition assay, p110α
Conditions: compared to J32
Protocol: PIK3CD was generously provided by Novartis Pharmaceuticals. […] J-series inhibitors were dissolved, serial diluted in DMSO and deposited into 96 well plates at a final DMSO concentration of 1%. […] Radio-labeled phosphatidyl-inositol-3-phosphate in the extracted organic fraction was quantified after the addition of Microscint O (PerkinElmer) using a TopCount 96 well plate scintillation counter (PerkinElmer). […]

structure=Cc1ccc([N+](=O)[O-])cc1S(=O)(=O)N(/N=C/c1cnc2ccc(Br)cn12)C(C)C result_value="6 to 49 fold"
structure=Cc1ccc([N+](=O)[O-])cc1S(=O)(=O)N(CC(C)C)/N=C/c1cnc2ccc(Br)cn12 result_value="6 to 49 fold"
structure=Cc1ccc([N+](=O)[O-])cc1S(=O)(=O)N(Cc1ccccc1)/N=C/c1cnc2ccc(Br)cn12 result_value="6 to 49 fold"

Now for another entry.
Lab note: CCN(/N=C/c1cnc2ccc(Br)cn12)S(=O)(=O)c1ccccc1C gave drop/decrease in inhibitory activity for PI3Kα of > 1333 fold

###

Biological target: p110γ (Homo sapiens)
Construct: His-tag
Sequence (P48736 whole entry): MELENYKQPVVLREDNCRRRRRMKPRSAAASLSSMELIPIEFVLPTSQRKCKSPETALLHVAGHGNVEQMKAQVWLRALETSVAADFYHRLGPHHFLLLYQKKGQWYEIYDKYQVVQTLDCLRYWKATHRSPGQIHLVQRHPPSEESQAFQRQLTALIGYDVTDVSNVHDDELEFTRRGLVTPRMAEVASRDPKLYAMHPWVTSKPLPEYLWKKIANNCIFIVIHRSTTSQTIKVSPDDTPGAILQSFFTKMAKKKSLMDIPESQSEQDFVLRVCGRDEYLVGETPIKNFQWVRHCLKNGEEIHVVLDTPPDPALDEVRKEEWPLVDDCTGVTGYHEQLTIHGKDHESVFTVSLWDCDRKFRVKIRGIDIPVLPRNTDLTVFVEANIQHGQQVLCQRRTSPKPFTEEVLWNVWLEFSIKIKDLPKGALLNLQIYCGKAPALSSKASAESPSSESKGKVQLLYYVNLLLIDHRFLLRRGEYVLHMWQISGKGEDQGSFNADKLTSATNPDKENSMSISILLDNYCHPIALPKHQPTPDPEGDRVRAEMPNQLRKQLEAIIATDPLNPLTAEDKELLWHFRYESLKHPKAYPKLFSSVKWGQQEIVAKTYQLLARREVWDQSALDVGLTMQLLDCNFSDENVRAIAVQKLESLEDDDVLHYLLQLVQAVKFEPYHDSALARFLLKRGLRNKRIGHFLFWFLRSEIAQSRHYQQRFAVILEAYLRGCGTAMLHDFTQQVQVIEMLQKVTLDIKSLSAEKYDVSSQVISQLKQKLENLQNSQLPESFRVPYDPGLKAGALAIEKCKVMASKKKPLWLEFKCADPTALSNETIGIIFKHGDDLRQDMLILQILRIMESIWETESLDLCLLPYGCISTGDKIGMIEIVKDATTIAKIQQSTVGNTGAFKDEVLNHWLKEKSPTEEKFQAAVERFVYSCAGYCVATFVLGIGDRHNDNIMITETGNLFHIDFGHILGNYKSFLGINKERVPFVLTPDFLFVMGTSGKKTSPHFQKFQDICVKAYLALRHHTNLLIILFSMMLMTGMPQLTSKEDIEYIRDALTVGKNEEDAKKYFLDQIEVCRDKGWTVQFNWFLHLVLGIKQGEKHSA
Experiment: Biochemical PI3K inhibition assay, p110γ
Conditions: 10 μM ATP, two hours; no regulatory subunit
pIC50: −log10 of the molar value.
experimental.endpoint: pIC50

compound="CCN(/N=C/c1cnc2ccc(Br)cn12)S(=O)(=O)c1cc([N+](=O)[O-])c(NCCOC)cc1C [J157]" experimental_endpoint=pIC50 result_value=6.00

P: Cc1ccc([N+](=O)[O-])cc1S(=O)(=O)N(CC(C)C)/N=C/c1cnc2ccc(Br)cn12 [J46]
Q: CCN(/N=C/c1cnc2ccc(Br)cn12)S(=O)(=O)c1cc([N+](=O)[O-])c(NCC(=O)O)cc1C [J159]
R: CCN(/N=C/c1cnc2ccc(Br)cn12)S(=O)(=O)c1cc([N+](=O)[O-])c(O)cc1C [J129]
S: CCN(/N=C/c1cnc2ccc(Br)cn12)S(=O)(=O)c1cc([N+](=O)[O-])c(NCC(=O)OC)cc1C [J161]
Give the ascending ranking of the items by reported pIC50. Write the labels out in the order the request specifies.
P, S, R, Q

P: CCN(/N=C/c1cnc2ccc(Br)cn12)S(=O)(=O)c1cc([N+](=O)[O-])c(NCC(=O)NC(Cc2ccccc2)C(=O)O)cc1C (centres unmarked) [J171]
Q: CCN(/N=C/c1cnc2ccc(Br)cn12)S(=O)(=O)c1cc([N+](=O)[O-])c(N)cc1C [J124-I]
// max by pIC50 over [ P , Q ] Please respond with the label that marks your chosen entry.
Q

###

Target: p110δ (Homo sapiens)
Sequence (O00329 whole entry): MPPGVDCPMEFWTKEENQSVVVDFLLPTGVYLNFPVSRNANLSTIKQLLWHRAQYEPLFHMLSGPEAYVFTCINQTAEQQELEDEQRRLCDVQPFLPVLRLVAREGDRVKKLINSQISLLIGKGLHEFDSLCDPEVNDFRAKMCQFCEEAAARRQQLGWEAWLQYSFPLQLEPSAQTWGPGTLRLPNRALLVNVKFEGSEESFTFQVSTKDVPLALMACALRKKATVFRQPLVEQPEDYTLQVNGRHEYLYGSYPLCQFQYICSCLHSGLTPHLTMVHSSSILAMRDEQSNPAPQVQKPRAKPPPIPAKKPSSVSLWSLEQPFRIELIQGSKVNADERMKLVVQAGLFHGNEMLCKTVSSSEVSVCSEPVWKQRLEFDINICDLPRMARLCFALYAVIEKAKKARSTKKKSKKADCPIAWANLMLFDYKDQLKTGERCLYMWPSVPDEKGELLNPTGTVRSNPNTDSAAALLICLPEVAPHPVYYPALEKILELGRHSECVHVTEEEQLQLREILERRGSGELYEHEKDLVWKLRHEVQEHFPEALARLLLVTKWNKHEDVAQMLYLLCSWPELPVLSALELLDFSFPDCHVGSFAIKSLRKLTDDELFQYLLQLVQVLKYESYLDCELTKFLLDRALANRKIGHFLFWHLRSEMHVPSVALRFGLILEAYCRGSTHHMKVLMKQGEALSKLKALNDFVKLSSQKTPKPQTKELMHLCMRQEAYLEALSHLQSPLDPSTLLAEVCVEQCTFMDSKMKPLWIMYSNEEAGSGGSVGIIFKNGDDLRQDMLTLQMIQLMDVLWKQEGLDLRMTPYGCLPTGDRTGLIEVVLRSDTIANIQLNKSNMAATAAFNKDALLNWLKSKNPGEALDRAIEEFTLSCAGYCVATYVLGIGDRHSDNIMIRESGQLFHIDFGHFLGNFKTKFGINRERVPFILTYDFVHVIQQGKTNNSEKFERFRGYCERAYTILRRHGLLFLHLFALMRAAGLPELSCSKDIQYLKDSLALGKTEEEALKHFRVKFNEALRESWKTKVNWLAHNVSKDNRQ
Sequence (P27986 322-600 partner limits assumed): as the sequence (P27986 322-600 partner limits assumed) above
pIC50: −log10 of the molar value.
experimental.endpoint: pIC50

Some solved entries appear below for comparison.
structure=CCN(/N=C/c1cnc2ccc(Br)cn12)S(=O)(=O)c1ccccc1C result_value=4.28
structure=CCN(/N=C/c1cnc2ccc(Br)cn12)S(=O)(=O)c1cc(N)ccc1C result_value=4.55
structure=CCN(/N=C/c1cnc2ccc(Br)cn12)S(=O)(=O)c1cc([N+](=O)[O-])c(O)cc1C result_value=7.18
structure=CCN(/N=C/c1cnc2ccc(Br)cn12)S(=O)(=O)c1cccc([N+](=O)[O-])c1 result_value=6.32

1: CCOC(=O)CN(/N=C/c1cnc2ccc(Br)cn12)S(=O)(=O)c1cc([N+](=O)[O-])ccc1C
2: CCN(/N=C/c1cnc2ccc(Br)cn12)C(=O)c1cc([N+](=O)[O-])ccc1C
3: CCN(/N=C/c1cnc2ccc(Br)cn12)S(=O)(=O)c1cc([N+](=O)[O-])c(NCC(=O)OC)cc1C
4: Cc1ccc([N+](=O)[O-])cc1S(=O)(=O)N(/N=C/c1cnc2ccc(Br)cn12)C(C)C
List these items ordered by pIC50, big to small. Write the labels out in the order the request specifies.
2, 1, 4, 3

###

Biological target: p110γ (Homo sapiens)
Construct: His-tag
Assay: Biochemical PI3K inhibition assay, p110γ
Conditions: 10 μM ATP, two hours; no regulatory subunit
pIC50: −log10 of the molar value.
experimental.endpoint: pIC50

Some solved entries appear below for comparison.
compound=CCN(/N=C/c1cnc2ccc(Br)cn12)S(=O)(=O)c1cccc([N+](=O)[O-])c1 result_value=6.10
compound=CCN(/N=C/c1cnc2ccc(Br)cn12)S(=O)(=O)c1cc(C(N)=O)ccc1Cl result_value=6.00
compound="Cc1ccc([N+](=O)[O-])cc1S(=O)(=O)N(C)/N=C/c1cnc2ccc(Br)cn12 [J27, reference compound]" result_value=7.12
compound=Cc1ccc([N+](=O)[O-])cc1S(=O)(=O)N(/N=C/c1cnc2ccc(Br)cn12)C(C)C result_value=5.48
compound=Cc1ccc([N+](=O)[O-])cc1S(=O)(=O)N(Cc1ccccc1)/N=C/c1cnc2ccc(Br)cn12 result_value=5.50

a: CCN(/N=C/c1cnc2ccc(Br)cn12)S(=O)(=O)c1cc(S(C)(=O)=O)ccc1C
b: CCN(/N=C/c1cnc2ccc(Br)cn12)S(=O)(=O)c1cc(N)ccc1C
Smaller pIC50 value, a vs b ? Please respond with the label that marks your chosen entry.
a
(a: 3.60, b: 4.52)

###

For reference, pIC50 measured on p110β (Homo sapiens, UniProt P42338):
pIC50: −log10 of the molar value.
experimental.endpoint: pIC50

Some solved entries appear below for comparison.
compound="CCN(/N=C/c1cnc2ccc(Br)cn12)S(=O)(=O)c1cc([N+](=O)[O-])c(O)cc1C [J129]" experimental_endpoint=pIC50 result_value=6.29
compound="CCN(/N=C/c1cnc2ccc(Br)cn12)S(=O)(=O)c1cc(N)ccc1C [J44]" experimental_endpoint=pIC50 result_value=4.68
compound="CCN(/N=C/c1cnc2ccc(Br)cn12)S(=O)(=O)c1cc([N+](=O)[O-])c(NCCOCCO)cc1C [J158]" experimental_endpoint=pIC50 result_value=5.46
compound="CCN(/N=C/c1cnc2ccc(Br)cn12)S(=O)(=O)c1cc(C(=O)O)ccc1C [J100]" experimental_endpoint=pIC50 result_value=5.70

A: CCN(/N=C/c1cnc2ccc(Br)cn12)S(=O)(=O)c1cc([N+](=O)[O-])c(NCC(=O)NC(Cc2ccccc2)C(=O)O)cc1C (centres unmarked) [J171]
B: CCN(/N=C/c1cnc2ccc(Br)cn12)S(=O)(=O)c1cc([N+](=O)[O-])ccc1C [J32]
C: CCOC(=O)CN(/N=C/c1cnc2ccc(Br)cn12)S(=O)(=O)c1cc([N+](=O)[O-])ccc1C [J43]
D: Cc1ccc([N+](=O)[O-])cc1S(=O)(=O)N(CCC#N)/N=C/c1cnc2ccc(Br)cn12 [J47]
Give the ascending ranking of the items by reported pIC50. Write the labels out in the order the request specifies.
A, C, B, D
